- Test system: M14 melanoma
- Protocol Details: NCI tumour cell line growth inhibition, 48 h
Reported Property: TGI

Please review the entries below; each comes with its answer.
1. Clc1cc2nnn(C3CCCCO3)c2cc1Cl (configuration not stated) | > 100 µM
2. Cc1nn2c(=O)n(-c3cccc(-n4nnc5c(-c6ccccc6)c(C)nn5c4=O)c3C)nnc2c1-c1ccccc1 | 29.6 µM
3. N#Cc1nc(-c2ccccc2O)oc1N | > 100 µM

[Q] Item: Cc1cc(O)c2c(c1)C(=O)C=C(Br)C2=O Test system: M14 melanoma Read-out: TGI Value: ?
[A] 29.5 µM

[Q] Requested read-out TGI, target or system M14 melanoma, entry CCn1c(SCC(=O)NNC(=S)Nc2ccc(Cl)cc2)nc2ccccc2c1=O
[A] > 100 µM

[Q] Enter reported TGI observed with M14 melanoma for CC(=O)n1cc(CC(C)O)c(=O)[nH]c1=O (configuration not stated)
[A] > 100 µM

[Q] # get_value(readout= TGI, system= M14 melanoma) for CC12OC3(C(O)C1O)C(C(=O)O[C@H]3CO[Si](C)(C)C(C)(C)C)C2S(=O)(=O)c1ccccc1 (some centres not stated)
[A] > 100 µM

[Q] Provide the documented TGI with M14 melanoma as the system for CC(=O)OCC1OC(N2C(=O)CC(N)=Nc3ccccc32)C(OC(C)=O)C(OC(C)=O)C1OC(C)=O (configuration not stated)
[A] > 100 µM

[Q] Provide the documented TGI with M14 melanoma as the system for COC1=CCC2=C(CCN(C(=O)C3CC3)C2Cc2ccc(OC)c(O)c2)C1 (configuration not stated)
[A] > 100 µM

[Q] Any idea what TGI came out for COc1cc(CCC(=O)O)c2cc3ccccc3cc2c1O on M14 melanoma?
[A] 42.6 µM

[Q] What measured TGI is associated with N#Cc1ccc(N2Cc3cc(Cl)ccc3OC3=C2C(=O)N(Cc2ccc(F)cc2)C3=O)cc1 on M14 melanoma?
[A] 9.33 µM

[Q] Reported TGI for M14 melanoma, given O=S1c2ccccc2N=C(c2ccc3ccccc3c2)CC1c1ccccc1F (configuration not stated) ?
[A] > 100 µM

====

- Tested on: DU-145 prostate
- Protocol Details: NCI tumour cell line growth inhibition, 48 h; in the data active means GI50 below about 0.43 µM; inactive means the rest
Your response should consist of one outcome taken from active, inactive

1) COc1cc2c(cc1OCc1ccccc1)N=C[C@@H]1C[C@@H](F)CN1C2=O | active
2) O=[N+]([O-])c1ccc(Oc2cccc(C(F)(F)F)c2)c([N+](=O)[O-])c1 | inactive

Next up:
[Q] Can you look up the reported call for O=C(N/N=C/c1ccncc1)c1ccc(C(F)(F)F)nc1Nc1cccc(C(F)(F)F)c1 for me?
[A] inactive

====

We begin with a simple list: items and their reported TGI.
- Test system: CCRF-CEM leukemia
- Protocol Details: NCI tumour cell line growth inhibition, 48 h

Recorded TGI, per entry:
1) OC1=CN=C(C2CC2)Oc2ccccc21 | > 100 µM
2) O=[N+]([O-])c1ccc(/C=N/n2c(CCc3n[nH]c(=S)n3/N=C/c3ccc([N+](=O)[O-])o3)n[nH]c2=S)o1 | 67.7 µM
3) Cc1cc(Br)c2nsnc2c1[N+](=O)[O-] | 5.44 µM
4) COc1ccc(C2c3cc4c(c(OC)c3CC3OCC(=O)C32)OCO4)cc1OC (configuration not stated) | < 0.01 µM

[Q] # input molecule: COc1ccc(N2C(=O)C(C#N)=C(SC)C(C#N)C2=O)cc1 (configuration not stated) ; wanted: its TGI
[A] > 100 µM

[Q] Record request: TGI value, item CSc1ncc2c(C#N)c3ccccn3c(=O)c2n1
[A] > 100 µM

[Q] # get_value(readout='TGI', item= O=[N+]([O-])c1ccc(OP(=O)(O)OCC2OC(CP(=O)(O)O)C(O)C2O)cc1 (configuration not stated) )
[A] > 100 µM

[Q] Need TGI, item O=S1CCN(Cc2ccc(-c3ccc4ncnc(Nc5ccc(OCc6ccccc6)c(F)c5)c4c3)o2)CC1
[A] > 25 µM

[Q] Return reported TGI; argument: COC(=O)CSc1n[nH]c(-c2ccccc2)n1
[A] > 100 µM

[Q] Using the record for COc1cc(-c2nccc3[nH]c(-c4cccc5[nH]ccc45)nc23)cc(OC)c1OC , report its TGI.
[A] 12 µM

[Q] Given CN=c1ss/c(=N\C(=S)N(C)C)n1C1CCCCC1 , state its recorded TGI.
[A] > 31.6 µM

[Q] Would you mind telling me what TGI value was observed for CSC1=N/C(=C\c2ccccc2)C(=O)N1CN1CCOCC1 ?
[A] > 100 µM

====

- Tested on: SR leukemia
- Protocol Details: NCI tumour cell line growth inhibition, 48 h
Reported Property: TGI

1) CC(=O)N1N=C(c2ccc3ccccc3c2O)CC1c1ccc(Cl)cc1Cl (stereo unspecified) | > 100 µM
2) CC(=O)NC1CCCN(O)C(=O)/C=C(/C)CCOC(=O)C(NC(C)=O)CCCN(O)C(=O)/C=C(/C)CCOC(=O)C(NC(C)=O)CCCN(O)C(=O)/C=C(/C)CCOC1=O.[Fe] (stereo unspecified) | > 100 µM
3) CC1(C)C(=O)CCC(=O)C(C)(C)C2=CC=C(O2)C(C)(C)C(=O)CCC(=O)C(C)(C)C2=CC=C1O2 | > 100 µM

[Q] Please report the recorded TGI for COc1ccc(C2c3cc4c(c(OC)c3CC3OCC(=O)C32)OCO4)cc1OC (stereo unspecified) .
[A] < 0.01 µM

[Q] # query: TGI of entry C=CCN1C(=O)/C(=C/c2ccccc2)N=C1SC1OC(COC(C)=O)C(OC(C)=O)C(OC(C)=O)C1OC(C)=O (stereo unspecified)
[A] > 100 µM

[Q] Query: TGI; subject: CC(C)(C)C(=O)CC(=O)C(F)(F)C(F)(F)C(F)(F)F.CC(C)(C)C(=O)CC(=O)C(F)(F)C(F)(F)C(F)(F)F.CC(C)(C)C(=O)CC(=O)C(F)(F)C(F)(F)C(F)(F)F.[Er]
[A] > 100 µM

[Q] Consider the molecule c1ccc(-c2sc(-c3ccccc3)c3c2C2CCC3C2)cc1 and give its measured TGI.
[A] 56.8 µM

[Q] I am curious: what TGI value has been reported for O=C(O)c1cccc(S(=O)(=O)NN2C(=O)CSC2c2ccccc2Cl)c1 (stereo unspecified) ?
[A] > 100 µM

[Q] What does the data say about its TGI? Entry: COc1cccc(C(C#N)NC23CC4CC(CC(C4)C2)C3)c1 (stereo unspecified)
[A] > 100 µM

[Q] Give its TGI value. Item: O=C(Nc1ccccc1)c1cc2c(cc1Cl)SC(NNCCO)=NS2(=O)=O
[A] > 100 µM

[Q] TGI for Cc1cn(C2CC(N=[N+]=[N-])C(CO)O2)c(=O)[nH]c1=O (stereo unspecified) ?
[A] > 1000 µM

====

- Tested on: HOP-92 NSCLC
- Protocol Details: NCI tumour cell line growth inhibition, 48 h
Reported Property: TGI

Before answering, review these 6 worked examples.
1. O=C(/C=C/c1cc(F)ccc1F)OCCc1ccccc1 | > 100 µM
2. c1ccc(N=C2C(=Nc3ccccc3)N(C3CCCCC3)C(=NC3CCCCC3)N2c2ccccc2)cc1 | > 100 µM
3. Nc1nc(Cl)cc(NCC2(CO)CC(c3ccccc3)C2)n1 (stereo not given) | > 100 µM
4. C=CCC1(O)C(=O)OC2C(O)COC21O (stereo not given) | > 100 µM
5. CC(C)(C)c1cc(Oc2ccc(C#N)c(C#N)c2)cc(C(C)(C)C)c1 | > 100 µM
6. CC(C)[Si](Oc1cc2c3c(ccc2c(O)c1[C@@H](C)CO[Si](C)(C)C(C)(C)C)C(C)(C)CCC3)(C(C)C)C(C)C | > 100 µM

[Q] Form field - read-out: TGI; system: HOP-92 NSCLC; submitted item: c1csc(-c2cscc2-c2cccs2)c1
[A] > 100 µM

[Q] Please state recorded TGI (tested on HOP-92 NSCLC) of COc1ccc(N2C(=O)C(C#N)=C(SC)C(C#N)C2=O)cc1 (stereo not given)
[A] > 100 µM

[Q] Lookup: TGI / HOP-92 NSCLC / Nc1cccc2c1CN(C1CCC(=O)NC1=O)C2=O (stereo not given)
[A] > 100 µM

====

# reported TGI; entries follow
- Tested on: SF-295 CNS
- Protocol Details: NCI tumour cell line growth inhibition, 48 h

1) O=[N+]([O-])c1ccc(/C=N/n2c(CCc3n[nH]c(=S)n3/N=C/c3ccc([N+](=O)[O-])o3)n[nH]c2=S)o1 | > 100 µM

[Q] Please give the measured TGI for this molecule: NS(=O)(=O)c1cccc(-c2cc3ccncc3cc2OCc2ccccc2)c1
[A] > 17.7 µM

[Q] // TGI lookup, key: CC(=O)N1N=C(c2ccc3ccccc3c2O)CC1c1ccc(Cl)cc1Cl (centres undefined)
[A] > 100 µM

[Q] // TGI lookup, key: CCc1ccc(Oc2nccc(-c3c(-c4ccc(F)cc4)ncn3C3CCNCC3)n2)cc1
[A] 12.1 µM

[Q] What value of measured TGI is listed for CN(C(=O)C12C3C4C1C1C2C3C41C(=O)N(C)C(C)(C)C)C(C)(C)C (centres undefined) ?
[A] > 50 µM

[Q] // lookup TGI for O=C(O)c1cccc(S(=O)(=O)NN2C(=O)CSC2c2ccccc2Cl)c1 (centres undefined)
[A] > 100 µM

[Q] Any idea what TGI was measured for C/C(=C\CCc1ccsc1)CC/C=C(\C)CCCN1CCN(CCO)CC1 ?
[A] 5.64 µM

[Q] So what's the measured TGI for this one? CCOC(=O)C/C(N)=C(\C#N)C(=O)OCC
[A] > 100 µM

[Q] Field request: TGI | item: Cn1c2c(c3ccccc31)CC(=O)N1CCCC(C1)CC21OCCO1 (centres undefined)
[A] > 100 µM

[Q] Would you mind telling me what TGI value was observed for CCNC(=S)Nc1c(C#N)c2n(c1C(=O)OCC)CCCCC2 ?
[A] > 100 µM
